# Lookup of reported TGI keyed by entry
Tested on: CCRF-CEM leukemia
Assay: NCI tumour cell line growth inhibition, 48 h

molecule | TGI
COc1ccc2occ(CCC(=O)O)c2c1 | > 100 µM
COC[C@@H](N=CC(C)(C)C)C(C)C | > 100 µM
O=c1cc[nH]c(=O)[nH]1 | > 950 µM
N#C[C@H](c1ccccn1)c1nc2ccccc2nc1Cl | > 100 µM
CN(C)c1ccc(/C=c2/c3ccccc3n3c2c2c([n+]3C)CCCC2)cc1 | 5.17 µM
O=C1CCC2(c3ccc(Cl)cc3)Nc3ncccc3N12 (stereo unspecified) | > 100 µM
COC(=O)C1=C(OC(=O)/C(=C/c2ccc(Cl)cc2)c2ccc(Cl)cc2)C(C(=O)OC)[C@@]2(O)[C@@H](C(=O)OC)[C@H](C)C[C@@H]1[C@@H]2C(=O)OC (stereo partly specified) | > 100 µM
NC(=S)N/N=C/C(=O)O | > 100 µM
CC1(C)C(C#N)C1C1=C(N2CCOCC2)[C@]2(C)C(OC(=O)c3ccccc3)CC[C@@H]2C1 (stereo partly specified) | > 100 µM
Cc1cc(Cl)cc(OCCn2cc(F)cn2)c1-c1nc(N)nc2c1CN(C(=O)NCC(C)(F)F)C2 | > 100 µM
O=C1C=CC(=O)c2c1ccc1c3ccccc3n(CCCCCn3c4ccccc4c4ccc5c(c43)C(=O)C=CC5=O)c21 | 6.58 µM
CC12C/C(=C\c3ccccc3)C(=O)C3C1CCCC32 | > 100 µM
Cc1ccc(S(=O)(=O)N(C=O)N=C2CCN(Cc3ccccc3)CC2)cc1 | > 100 µM
COc1cccc(CCNC(=O)Cc2ccccc2CCO)c1 | > 100 µM
CC(=O)OC(OC(C)=O)c1ccc2ccc3cccc4ccc1c2c34 | > 100 µM
Cc1ccc(-c2c(C#N)c(-c3ccc(C)cc3)n(NS(=O)(=O)c3ccccc3)c(=O)c2C#N)cc1 | 77.7 µM
BrC1=C(Br)C2(SCCS2)[C@H]2C[C@@H]1c1ccccc12 | > 100 µM
S=C(Nc1ccc(Cl)cc1)Nc1ccc(-c2nc3ccccc3s2)cc1 | 54.8 µM
CNCc1ccccc1-c1csc([C@@H](C)Nc2nc(C)nc3cc(OC)c(OC)cc23)c1 | 5.3 µM
CC(=O)N=C1N(/C=C2\C(=O)Oc3ccccc3C2=O)C(=O)/C(=C/c2cccc(Cl)c2Cl)N1C | > 100 µM
CN(C)CCNC(=O)c1cccc2ccc(-c3ccc(O)cc3)nc12 | 7.25 µM

====

Tested on: SK-OV-3 ovarian
Experiment: NCI tumour cell line growth inhibition, 48 h
observation.type: TGI (µM)

compound | target.under.test | observation.type | censoring.qualifier | experimental.result
NC(CCCCCP(=O)(c1ccccc1)C1C=CC=CC1)C(=O)O (stereo not given) | SK-OV-3 ovarian | TGI | > | 100
CC(C)CCC1CC2C(=O)N(c3ccccc3)C(=O)C2c2[nH]c3ccccc3c21 (stereo not given) | SK-OV-3 ovarian | TGI | = | 32.2
COc1cc(C2c3cc4c(cc3OC(N3CCCCC3)C2C)OCO4)cc(OC)c1O (stereo not given) | SK-OV-3 ovarian | TGI | = | 19.9
COc1cccc(F)c1C(=O)c1cnc(NC2CCN(S(C)(=O)=O)CC2)nc1N | SK-OV-3 ovarian | TGI | > | 25
Nc1nc(Cl)cc(NCCCCCCCCNc2cc(Cl)nc(N)n2)n1 | SK-OV-3 ovarian | TGI | > | 100
CCC12CCCN(Cc3ccccc3)C1c1c(n(C)c3ccccc13)CC2 (stereo not given) | SK-OV-3 ovarian | TGI | > | 253
Cc1cc(Nc2ccc(NC(=O)c3ccc(Nc4ccnc5ccccc45)cc3)cc2)nc(N)n1 | SK-OV-3 ovarian | TGI | = | 54.8
c1ccc(-c2nnc(-c3ccccn3)s2)nc1 | SK-OV-3 ovarian | TGI | > | 100
CO/N=C(/C)c1cccc(Nc2cc(-n3nnc4ccccc43)nc3ccccc23)c1 | SK-OV-3 ovarian | TGI | > | 100
CN(C)c1ccc(/C=c2/c3ccccc3n3c2c2c([n+]3C)CCCC2)cc1 | SK-OV-3 ovarian | TGI | = | 2.07

====

The entries below come with measured TGI values attached.
System: EKVX NSCLC
Assay: NCI tumour cell line growth inhibition, 48 h

compound | target.under.test | TGI
COc1ccc(C2SC(N)=Nc3c2c(C)nn3C(=O)c2ccncc2)cc1OC (stereo unspecified) | EKVX NSCLC | > 10 µM
CC(C)(C)OC(=O)N(CCCCN(CCCNC(=O)C(F)(F)F)C(=O)OC(C)(C)C)CCCNC(=O)C(F)(F)F | EKVX NSCLC | > 100 µM
Cc1c(C)c2c(c(N)c1C#N)C(=O)N(NC(=O)c1ccccc1)C2=O | EKVX NSCLC | > 100 µM
O=C(Nc1ccc(Nc2ccncc2)cc1)c1ccc([N+](=O)[O-])cc1 | EKVX NSCLC | > 61.2 µM
Cc1ccc2c(c1)C(=S)N1CSCC1c1nncn1-2 (stereo unspecified) | EKVX NSCLC | > 100 µM
CCCCOC(=O)CNC(=O)OC/C=C/C#CC#C/C=C/COC(=O)NCC(=O)OCCCC | EKVX NSCLC | > 100 µM
O=c1sc2ccccc2n1CC1CS1 (stereo unspecified) | EKVX NSCLC | > 100 µM
N#CN/C(N)=N/CO | EKVX NSCLC | > 100 µM
COc1cccc(C2c3cc4c(cc3OC(N3CCCCC3)C2C)OCO4)c1O (stereo unspecified) | EKVX NSCLC | 56.8 µM
O=C(Nc1ccc2ncccc2c1)Nc1ccc2ncccc2c1 | EKVX NSCLC | > 100 µM
COc1ccc(Sc2[nH]c(C(C)=O)c3ccccc23)cc1 | EKVX NSCLC | 26 µM
CC(C)NC(=O)OCc1c(COC(=O)NC(C)C)c(-c2cc[n+](COC(=O)C3CC3)cc2)n2c1CCC2 | EKVX NSCLC | > 100 µM
Cc1ccc(S(=O)(=O)Nc2ccccc2C=O)cc1 | EKVX NSCLC | 61.1 µM
CCC12CCCN(Cc3ccccc3)C1c1c(n(C)c3ccccc13)CC2 (stereo unspecified) | EKVX NSCLC | > 253 µM
O=C1Sc2cc3ccccc3cc2C(=O)Sc2ccc(Br)cc21 | EKVX NSCLC | 28.1 µM
O=[N+]([O-])C[C@@]12O[C@]3(O)C4C5CC(C6C5C3C61)C42 (stereo partly specified) | EKVX NSCLC | > 100 µM

====

System: U251 CNS
Assay: NCI tumour cell line growth inhibition, 48 h
Listed below: TGI values for each entry.
observation.type: TGI

compound | observation.type | experimental.result
CO[C@@]12C[C@@H](C)C3=CCC(C)=C3CC1=C(C)C(=O)O2 | TGI | > 100 µM
Brc1ccc2[nH]cc(-c3csc(-c4c[nH]c5ccccc45)n3)c2c1 | TGI | 8.64 µM
C=CCc1cccc2cc(C(=O)NCc3ccccc3)c(=N)oc12 | TGI | > 100 µM
C=CCCON(C(=O)OC(C)(C)C)C(C)(C)C | TGI | > 100 µM
CC(=O)Nc1ccc(S(=O)(=O)N2C(=O)CCC2C(=O)Nc2ccc(Br)cc2)cc1 (stereo not given) | TGI | 11.3 µM
CC(=O)Nc1ccc(N=Nc2c(O)c(S(=O)(=O)O)cc3cc(S(=O)(=O)O)ccc23)cc1 | TGI | > 100 µM
N#Cc1c(NC(=O)NCc2ccccc2)sc2c1CCCCC2 | TGI | > 71.2 µM
CC(=O)OC1/C=C(\C)C(OC(C)=O)C/C=C(/C)CCC2C(/C=C/C1=O)C2(C)C (stereo not given) | TGI | > 100 µM
CC(C)CCC1CC2C(=O)N(c3ccccc3)C(=O)C2c2[nH]c3ccccc3c21 (stereo not given) | TGI | 3.5 µM
CCOc1ncn(-c2ccc(NC(=S)Nc3ncccn3)cc2)n1 | TGI | > 100 µM

====

The following molecules are shown together with reported TGI values.
Test system: SR leukemia
Experiment: NCI tumour cell line growth inhibition, 48 h
Starred links: 1 amine or outer side, 2 acyl side, 3 side chain; linkers in the order of their positions; H or OH if unused. Positions of bridges follow the written chain, without caps; N, C: chain ends. Non-standard residues stand in square brackets, D forms with d. Residues, ends and D or L forms follow the SMILES beside them. Chains are numbered I, II in the order given. Actinocin(9to1) = Cc1c2oc3c(C)ccc(C(=O)[*:1])c3nc-2c(C(=O)[*:2])c(N)c1=O; NMeY = CN[CH](Cc1ccc(O)cc1)C(=O)O; Sar = CNCC(=O)O

molecule | TGI
O=C(O)COc1ccc2c(=O)c3sc4c(=O)c5ccccc5c(=O)c4c3c(=O)c2c1 | > 100 µM
CC1CC(OP(=O)(OCc2ccccc2)OCc2ccccc2)[C@@H](OCc2ccccc2)C(OCc2ccccc2)C1OCc1ccccc1 (stereo partly drawn) | > 100 µM
Cc1c2n(c(=O)[nH]c1=O)C1OC(CO)C(O2)C1O (stereo not drawn) | > 100 µM
[N-]=[N+]=NC1(Cc2ccccc2)C(=O)c2cccc3c2N(CCC3)C1=O (stereo not drawn) | > 100 µM
COc1cccc(CC(C)=C(c2ccc(OCCN(C)C)cc2)c2ccc(OCCN(C)C)cc2)c1 | 2.22 µM
C[N+](C)(C)CC1CCCc2ccccc2C1=O (stereo not drawn) | 8.08 µM
O=C(Nc1ccc(Nc2ccncc2)cc1)c1ccc([N+](=O)[O-])cc1 | > 20.4 µM
CN1C(=O)c2ccccc2OC12C=Cc1c(ccc3ccccc13)O2 (stereo not drawn) | > 100 µM
CCCCCCNc1n[nH]c(=O)c2c1nnn2Cc1ccccc1 | > 100 µM
Nc1nn2cc(F)cnc2c1C(=O)Nc1cncc(F)c1N1CCC(C(=O)N2CCN(C3COC3)CC2)CC1 | 0.894 µM
CCOC1(OCC)C2C=CC1C(COS(=O)(=O)c1ccc(C)cc1)C2COS(=O)(=O)c1ccc(C)cc1 (stereo not drawn) | 58.6 µM
CC1=C(C)CC2C(=O)N(c3cc(C(C)(C)C)ccc3C(C)(C)C)C(=O)C2C1 (stereo not drawn) | > 100 µM
CCOc1ncn(-c2ccc(NC(=S)Nc3ncccn3)cc2)n1 | 59.5 µM
O=C(O)c1nnsc1-c1ccc(-c2snnc2C(=O)O)cc1 | > 100 µM
CC12C/C(=C\c3ccccc3)C(=O)C3C1CCCC32 | > 100 µM
COc1cccc(C2c3cc4c(cc3OC(N3CCCCC3)C2C)OCO4)c1O (stereo not drawn) | 11.8 µM
COC(=O)c1ccc2c(c1)nc(NC(=O)c1ccccc1)n2CCCc1ccccc1 | > 100 µM
C[n+]1c2ccc(Cl)cc2nc2cc(-c3ccccc3)ccc21 | 9.14 µM
O=c1[nH]cnc2c1cnn2Cc1cn(CCCCO)nn1 | > 100 µM
c1ccc(-c2nnc(-c3ccccn3)s2)nc1 | > 100 µM
C=C1C(=O)OC2CC(C)C(C(CC(C)=O)OC(C)=O)=CCC12 (stereo not drawn) | 15.5 µM
COc1ccc(OC)c2c1[nH]c(=O)c1c3ccccc3cn21 | 2.36 µM
Nc1ccc2c(c1)C(=O)N1CCC[C@H]1C(=O)N2 | > 100 µM
C/C=C/C(CC(O)(C(F)(F)F)C(F)(F)F)=N/NC(N)=S | > 10 µM
C=CCc1c(O)c2c(c3oc(=O)cc(C)c13)CC(C)O2 (stereo not drawn) | > 100 µM
Cc1c2oc3c(C)ccc(C(=O)NC4C(=O)NC(C(C)C)C(=O)N5CCCC5C(=O)N(C)CC(=O)N(C)C(Cc5ccc(O)cc5)C(=O)OC4C)c3nc-2c(C(=O)NC2C(=O)NC(C(C)C)C(=O)N3CCCC3C(=O)N(C)CC(=O)N(C)C(Cc3ccc(O)cc3)C(=O)OC2C)c(N)c1=O (stereo not drawn) (I: TVP[Sar][NMeY] / II: TVP[Sar][NMeY]; ester I:1-I:C, II:1-II:C; linker I:N-II:N via Actinocin(9to1); configuration not given here) | > 0.514 µM
NC(N)=NCCN1CC2CCC(CC2)C1 | > 100 µM
BrC1=C(Br)C2(SCCS2)[C@H]2C[C@@H]1c1ccccc12 | 75 µM
Cn1c(I)c(C#CCO[Si](C)(C)C(C)(C)C)c(=O)[nH]c1=O | 3.6 µM
CC(C)CCC1CC2C(=O)N(c3ccccc3)C(=O)C2c2[nH]c3ccccc3c21 (stereo not drawn) | 23.9 µM
O=C1c2ccccc2C(=O)c2c(NCC(O)CO)ccc(NCC(O)CO)c21 (stereo not drawn) | > 100 µM
COc1ccc(Sc2[nH]c(C(C)=O)c3ccccc23)cc1 | 15.2 µM
CCCC(=O)NC(NC1CCCCC1)(C(=O)OCC)C(F)(F)F (stereo not drawn) | > 100 µM
CO/N=C(\C)c1ccc(Nc2nc3ccccc3c3occc23)cc1 | 58.6 µM
CCN(CC)CCNc1ccc2nnn3c4ccc(OCCN(CC)CC)cc4c(=O)c1c23 | 45.4 µM
N=C(N)C1CN(CCc2c[nH]c3ccccc23)C(=O)NC1=O (stereo not drawn) | > 100 µM
CC(C)(C)OC(=O)NC1CCCCC1NC(=O)C(=O)NC1CCCCC1NC(=O)OC(C)(C)C (stereo not drawn) | > 100 µM
c1ccc(N=C(N2CCCC2)N(CCN2CCCC2)c2ccccc2)cc1 | > 100 µM
COc1cc(C2C3C=CC=C4CC=CC(=C43)C3CCC(=O)N32)cc(OC)c1OC (stereo not drawn) | > 100 µM
O=C1C2SC34c5c2c2ccccc2n5CCC3CCCN14 (stereo not drawn) | > 100 µM
[N-]=[N+]=Nc1c([N+](=O)[O-])c(=O)n(-c2ccccc2)c2ccccc12 | 82.6 µM
CCC(=O)CC(=O)CCC(=O)Nc1cc(C)ccc1C | > 100 µM
CC(C)(C)OC(=O)N(CCCCN(CCCNC(=O)C(F)(F)F)C(=O)OC(C)(C)C)CCCNC(=O)C(F)(F)F | > 100 µM
